system: ECL P99; experiment: Fractional Inhibitory Concentration Index, checkerboard assay; type: cell-based, E. cloacae; settings: compound +FEP
metric.name: FIC index min
Quick one: just the number, no unit, thanks!

### Prompt Name the recorded FIC index min of the item NCCn1c2c(sc1=O)C1CN(C2)C(=O)N1OS(=O)(=O)[O-].[Na+] (stereo not shown) [Example 3] in your answer.
### Response 0.31

### Prompt Name the recorded FIC index min of the item NC[C@@H]1C(c2ncco2)=C[C@@H]2CN1C(=O)N2OS(=O)(=O)[O-].O=C(O)C(F)(F)F.[Na+] [Example 5] in your answer.
### Response 0.23

### Prompt Name the recorded FIC index min of the item NCCON=C1C[C@@H](C(N)=O)N2C[C@@H]1N(OS(=O)(=O)[O-])C2=O.[Na+] [Example 2] in your answer.
### Response 0.14

### Prompt Name the recorded FIC index min of the item NC[C@H]1C=C(c2cnco2)[C@@H]2CN1C(=O)N2OS(=O)(=O)[O-].O=C(O)C(F)(F)F.[Na+] (relative stereo) [Example 1] in your answer.
### Response 0.47

### Prompt Name the recorded FIC index min of the item O=C1N2CC(c3ncco3)=C[C@H](C2)N1OS(=O)(=O)[O-].[Na+] [Example 9] in your answer.
### Response 0.23

### Prompt Name the recorded FIC index min of the item O=C1N2CC(c3cccnc3)=CC(C2)N1OS(=O)(=O)[O-].[Na+] (stereo not shown) [Example 8] in your answer.
### Response 0.25

### Prompt Name the recorded FIC index min of the item NC[C@@H]1CC(=NOCC(N)=O)[C@@H]2CN1C(=O)N2OS(=O)(=O)[O-].O=C(O)C(F)(F)F.[Na+] [Example 4] in your answer.
### Response 0.44
